Biological target: human Y2R (Homo sapiens)
Sequence (P49146 1-381): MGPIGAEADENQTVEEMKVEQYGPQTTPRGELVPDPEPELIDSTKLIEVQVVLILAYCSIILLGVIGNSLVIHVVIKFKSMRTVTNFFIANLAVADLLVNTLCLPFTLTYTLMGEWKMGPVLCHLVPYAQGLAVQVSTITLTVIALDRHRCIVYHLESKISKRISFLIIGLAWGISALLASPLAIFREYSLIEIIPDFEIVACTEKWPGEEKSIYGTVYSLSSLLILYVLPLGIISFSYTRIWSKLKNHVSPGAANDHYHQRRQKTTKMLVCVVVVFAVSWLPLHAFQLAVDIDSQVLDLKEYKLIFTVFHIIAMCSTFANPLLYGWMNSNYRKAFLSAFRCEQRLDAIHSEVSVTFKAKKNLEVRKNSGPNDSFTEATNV
Where a SMILES comes first, the peptide text is derived from it. The star is where a group is joined. Bz = O=C(c1ccccc1)*
quantity.name: IC50 (nM)
Give bare numbers, in nM.

Prompt: Tell me the measured IC50 of CC[C@H](C)[C@H](NC(=O)[C@H](Cc1ccc(O)cc1)NC(=O)[C@H](C)NC(=O)[C@H](CCCNC(=N)N)NC(=O)c1ccccc1)C(=O)N[C@@H](CC(N)=O)C(=O)N[C@@H](CC(C)C)C(=O)N[C@H](C(=O)N[C@H](C(=O)N[C@@H](CCCNC(=N)N)C(=O)N[C@@H](CCC(N)=O)C(=O)N[C@@H](CCCNC(=N)N)C(=O)N[C@@H](Cc1ccc(O)cc1)C(N)=O)[C@@H](C)O)[C@@H](C)CC [Compound 1, benzoyl-[Ala^26,Ile^28,31]PYY(25–36)] (Bz-RAYINLITRQRY-NH2) , please.
Completion: 16

---

Biological target: human Y2R (Homo sapiens, UniProt P49146)
Sequence (P49146 1-381): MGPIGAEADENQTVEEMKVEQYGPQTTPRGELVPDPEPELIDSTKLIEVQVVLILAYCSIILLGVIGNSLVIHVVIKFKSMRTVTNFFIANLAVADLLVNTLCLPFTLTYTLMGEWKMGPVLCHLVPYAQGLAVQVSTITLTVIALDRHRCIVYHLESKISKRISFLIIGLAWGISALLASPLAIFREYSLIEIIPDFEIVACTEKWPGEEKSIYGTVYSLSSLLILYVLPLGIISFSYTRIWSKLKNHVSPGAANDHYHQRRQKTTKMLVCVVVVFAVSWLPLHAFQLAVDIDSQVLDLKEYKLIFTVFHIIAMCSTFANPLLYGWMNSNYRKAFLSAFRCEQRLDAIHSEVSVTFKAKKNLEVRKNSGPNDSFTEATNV
Where a SMILES comes first, the peptide text is derived from it. [ ]: non-standard residue; d: D form. The star is where a group is joined. 1Nal = N[C@@H](Cc1cccc2ccccc12)C(=O)O; Cha = N[C@@H](CC1CCCCC1)C(=O)O; 4Amb = NCc1ccc(C(=O)O)cc1; Aib = CC(C)(N)C(=O)O; Bz = O=C(c1ccccc1)*
quantity.name: pIC50
Answers are plain numbers, as −log10 of the molar value.

compound	pIC50
CC(C)C[C@H](NC(=O)[C@H](CC(N)=O)NC(=O)[C@H](CC1CCCCC1)NC(=O)[C@H](CC1CCCCC1)NC(=O)[C@H](Cc1cnc[nH]1)NC(=O)[C@H](CCCNC(=N)N)NC(=O)c1ccc(CN)cc1)C(=O)NC(C)(C)C(=O)N[C@H](C(=O)N[C@@H](CCCNC(=N)N)C(=O)N[C@@H](CCC(N)=O)C(=O)N[C@@H](CCCNC(=N)N)C(=O)N[C@@H](CC1CCCCC1)C(N)=O)[C@@H](C)O [Compound 24] (H-[4Amb]RH[Cha][Cha]NL[Aib]TRQR[Cha]-NH2)	9.19

Turning now to a further record.
Prompt: Provide value of pIC50 for this record tested with human Y2R (Homo sapiens, UniProt P49146): CC(C)C[C@H](NC(=O)[C@H](CC(N)=O)NC(=O)[C@H](Cc1cccc2ccccc12)NC(=O)[C@H](CC1CCCCC1)NC(=O)[C@H](Cc1c[nH]cn1)NC(=O)[C@H](CCCNC(=N)N)NC(=O)c1ccccc1)C(=O)NC(C)(C)C(=O)N[C@H](C(=O)N[C@@H](CCCNC(=N)N)C(=O)N[C@@H](CCC(N)=O)C(=O)N[C@@H](CCCNC(=N)N)C(=O)N[C@@H](CC1CCCCC1)C(N)=O)[C@@H](C)O [Compound 19] (Bz-RH[Cha][1Nal]NL[Aib]TRQR[Cha]-NH2)
Completion: 8.04

---

Molecular target: UniProt P49146
Sequence (P49146 1-381): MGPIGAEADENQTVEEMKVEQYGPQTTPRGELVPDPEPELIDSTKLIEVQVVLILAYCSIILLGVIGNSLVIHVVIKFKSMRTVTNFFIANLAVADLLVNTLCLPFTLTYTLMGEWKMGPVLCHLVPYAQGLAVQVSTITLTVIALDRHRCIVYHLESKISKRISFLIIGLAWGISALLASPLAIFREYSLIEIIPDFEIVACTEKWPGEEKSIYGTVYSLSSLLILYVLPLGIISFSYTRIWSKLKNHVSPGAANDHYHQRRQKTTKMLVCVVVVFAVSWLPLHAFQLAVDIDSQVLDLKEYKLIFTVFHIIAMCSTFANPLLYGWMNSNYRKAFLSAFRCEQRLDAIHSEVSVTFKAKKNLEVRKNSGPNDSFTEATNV
Where a SMILES comes first, the peptide text is derived from it. [ ]: non-standard residue; d: D form. The star is where a group is joined. Phe(4-F) = N[C@@H](Cc1ccc(F)cc1)C(=O)O; Cyclohexanecarbonyl = O=C(C1CCCCC1)*; Cha = N[C@@H](CC1CCCCC1)C(=O)O; Aib = CC(C)(N)C(=O)O; Bz = O=C(c1ccccc1)*
quantity.name: pIC50
Answers are plain numbers, as −log10 of the molar value.

compound	pIC50
CC[C@H](C)[C@H](NC(=O)[C@H](CC1CCCCC1)NC(=O)[C@H](Cc1c[nH]cn1)NC(=O)[C@H](CCCNC(=N)N)NC(=O)c1ccccc1)C(=O)N[C@@H](CC(N)=O)C(=O)N[C@@H](CC(C)C)C(=O)N[C@@H](CCCCN)C(=O)N[C@H](C(=O)N[C@@H](CCCNC(=N)N)C(=O)N[C@@H](CCC(N)=O)C(=O)N[C@@H](CCCNC(=N)N)C(=O)N[C@@H](CC1CCCCC1)C(N)=O)[C@@H](C)O [Compound 9] (Bz-RH[Cha]INLKTRQR[Cha]-NH2)	8.80

# next compound below
Prompt: Bench note: what pIC50 did C[C@@H](O)[C@H](NC(=O)C(C)(C)NC(=O)[C@H](Cc1ccc(F)cc1)NC(=O)[C@H](CC(N)=O)NC(=O)[C@H](CC1CCCCC1)NC(=O)[C@H](CC1CCCCC1)NC(=O)[C@H](Cc1c[nH]cn1)NC(=O)[C@H](CCCNC(=N)N)NC(=O)C1CCCCC1)C(=O)N[C@@H](CCCNC(=N)N)C(=O)N[C@@H](CCC(N)=O)C(=O)N[C@@H](CCCNC(=N)N)C(=O)N[C@@H](CC1CCCCC1)C(N)=O [Compound 28] (Cyclohexanecarbonyl-RH[Cha][Cha]N[Phe(4-F)][Aib]TRQR[Cha]-NH2) show?
Completion: 7.51

---

target: human Y2R (Homo sapiens, UniProt P49146); assay: biochemical
Where a SMILES comes first, the peptide text is derived from it. [ ]: non-standard residue; d: D form. The star is where a group is joined. 2Nal = N[C@@H](Cc1ccc2ccccc2c1)C(=O)O; Cyclohexanecarbonyl = O=C(C1CCCCC1)*; Cha = N[C@@H](CC1CCCCC1)C(=O)O; Isobutyryl = CC(C)C(=O)*; Aib = CC(C)(N)C(=O)O; Bz = O=C(c1ccccc1)*
Provide the recorded EC50 for the entries that follow.

Use these answered entries as a reference point.
molecule	EC50
CC(C)C[C@H](NC(=O)[C@H](CC(N)=O)NC(=O)[C@H](CC1CCCCC1)NC(=O)[C@H](CC1CCCCC1)NC(=O)[C@H](Cc1c[nH]cn1)NC(=O)[C@H](CCCNC(=N)N)NC(=O)C(C)C)C(=O)NC(C)(C)C(=O)N[C@H](C(=O)N[C@@H](CCCNC(=N)N)C(=O)N[C@@H](CCC(N)=O)C(=O)N[C@@H](CCCNC(=N)N)C(=O)N[C@@H](CC1CCCCC1)C(N)=O)[C@@H](C)O [Compound 23] (Isobutyryl-RH[Cha][Cha]NL[Aib]TRQR[Cha]-NH2)	1.2 nM
CC[C@H](C)[C@H](NC(=O)[C@H](Cc1c[nH]c2ccccc12)NC(=O)[C@H](CC(N)=O)NC(=O)[C@H](CC1CCCCC1)NC(=O)[C@H](CC1CCCCC1)NC(=O)[C@H](Cc1c[nH]cn1)NC(=O)[C@H](CCCNC(=N)N)NC(=O)C1CCCCC1)C(=O)N[C@H](C(=O)N[C@@H](CCCNC(=N)N)C(=O)N[C@@H](CCC(N)=O)C(=O)N[C@@H](CCCNC(=N)N)C(=O)N[C@@H](CC1CCCCC1)C(N)=O)[C@@H](C)O [Compound 14] (Cyclohexanecarbonyl-RH[Cha][Cha]NWITRQR[Cha]-NH2)	11 nM
CC[C@H](C)[C@H](NC(=O)[C@H](Cc1ccc2ccccc2c1)NC(=O)[C@H](Cc1c[nH]cn1)NC(=O)[C@H](CCCNC(=N)N)NC(=O)c1ccccc1)C(=O)N[C@@H](CC(N)=O)C(=O)N[C@@H](Cc1c[nH]c2ccccc12)C(=O)N[C@H](C(=O)N[C@H](C(=O)N[C@@H](CCCNC(=N)N)C(=O)N[C@@H](CCC(N)=O)C(=O)N[C@@H](CCCNC(=N)N)C(=O)N[C@@H](CC1CCCCC1)C(N)=O)[C@@H](C)O)[C@@H](C)CC [Compound 15] (Bz-RH[2Nal]INWITRQR[Cha]-NH2)	7.3 nM
CC(C)C[C@H](NC(=O)[C@H](CC(N)=O)NC(=O)[C@H](Cc1ccc2ccccc2c1)NC(=O)[C@H](CC1CCCCC1)NC(=O)[C@H](Cc1c[nH]cn1)NC(=O)[C@H](CCCNC(=N)N)NC(=O)c1ccccc1)C(=O)NC(C)(C)C(=O)N[C@H](C(=O)N[C@@H](CCCNC(=N)N)C(=O)N[C@@H](CCC(N)=O)C(=O)N[C@@H](CCCNC(=N)N)C(=O)N[C@@H](CC1CCCCC1)C(N)=O)[C@@H](C)O [Compound 20] (Bz-RH[Cha][2Nal]NL[Aib]TRQR[Cha]-NH2)	7.5 nM

Consider now this further molecule.
Prompt: EC50 for CC[C@H](C)[C@H](NC(=O)[C@H](CC1CCCCC1)NC(=O)[C@H](Cc1c[nH]cn1)NC(=O)[C@H](CCCNC(=N)N)NC(=O)c1ccccc1)C(=O)N[C@@H](CC(N)=O)C(=O)N[C@@H](CC(C)C)C(=O)N[C@@H](CC1CCCCC1)C(=O)N[C@H](C(=O)N[C@@H](CCCNC(=N)N)C(=O)N[C@@H](CCC(N)=O)C(=O)N[C@@H](CCCNC(=N)N)C(=O)N[C@@H](CC1CCCCC1)C(N)=O)[C@@H](C)O [Compound 8] (Bz-RH[Cha]INL[Cha]TRQR[Cha]-NH2) ?
Completion: 7.3 nM
